The measured values listed here are drawn from patent US20210395392A1.

Molecular target: T1, Recombinant soluble extracellular domain of cynomolgus monkey MerTK (cynomolgus monkey, UniProt Q12866 21-505 (human entry))
T1 construct: SPR analyte; also called cMerTK; Cynomolgus MerTK
T1 chain: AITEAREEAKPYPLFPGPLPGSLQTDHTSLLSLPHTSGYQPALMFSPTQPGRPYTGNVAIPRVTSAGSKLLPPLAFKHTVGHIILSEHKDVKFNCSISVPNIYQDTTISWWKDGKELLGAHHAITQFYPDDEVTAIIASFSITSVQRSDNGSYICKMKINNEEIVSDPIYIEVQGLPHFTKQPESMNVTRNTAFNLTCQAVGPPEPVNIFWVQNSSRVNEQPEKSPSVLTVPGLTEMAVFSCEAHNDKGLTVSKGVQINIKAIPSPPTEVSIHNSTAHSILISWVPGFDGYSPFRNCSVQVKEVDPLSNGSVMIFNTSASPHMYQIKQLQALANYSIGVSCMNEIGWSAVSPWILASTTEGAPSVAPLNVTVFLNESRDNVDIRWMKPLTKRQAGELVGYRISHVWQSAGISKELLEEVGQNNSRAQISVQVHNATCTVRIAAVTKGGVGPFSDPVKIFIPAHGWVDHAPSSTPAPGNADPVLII
Experiment: SPR, mAb captured, soluble MerTK ECD as analyte, 37 C
Procedure: MerTK Abs were captured on the chip. Recombinant soluble forms of the extracellular domains of human, cynomolgus monkey, and mouse MerTK polypeptide were injected as analytes at multiple concentrations each. The resulting sensorgrams were double-referenced and fitted to a 1:1 Langmuir binding model with mass transport.
Measured kon, listed per entry.
Express it in M⁻¹ s⁻¹; write the number only.

For orientation, consider the following solved cases.
| binder | parameter | unit_name | numeric_readout |
| --- | --- | --- | --- |
| HuMAb 4K10 (antibody, human IgG1, kappa, V domains shown, Human anti-hMerTK mAb, Bin 3) VH: QVQLQQWGAGLLKPSETLSLTCAVYGGSFSGYYWSWLRQPPGKGLEWIGEISHSGSTNYNPSLKSRVTISVDTSKNQFSLKLSSVTAADTAVYYCARALSRYWYFDLWGRGTLVTVSS VL: EIVLTQSPATLSLSPGERATLSCRASQSASNYLAWYQQKPGQAPRLLIYDASNRATGIPARFSGSGSGTDFTLTISSLEPEDFAVYYCYQRSQWPISFGQGTRLEIKR | kon | M⁻¹ s⁻¹ | 121000 |
| HuMAb 1B4 (antibody, human IgG1, kappa, V domains shown, Human anti-hMerTK mAb, Bin 1) VH: QLQLQESGPGLVKPSETLSLTCAVSGYSISSGNYWGWIRQSPGKGLEWIGSVDHSGSTYYSPSLKSRVTISVDTSKNQFSLKLNSVTAADTADYYCARNTMIRGVMDWFDPWGQGTLVTVSS VL: AIQLTQSPSSLSASVGDRVTITCRASQGISSALAWYQQKPGKAPKVLIYDASSLESGVPSRFSGSGSGTDFTLTISSLQPEDFATYYCQQFRSYPTFGQGTKVEIKR | kon | M⁻¹ s⁻¹ | 145000 |
| HuMAb 25J80 (antibody, human IgG1, kappa, V domains shown, Human anti-hMerTK mAb, Bin 2, derived from HuMAb 25B10 by optimization) VH: QVQLVQSGAEVKKPGASVKVSCKTSGRTFIRYYMHWVRQAPGQGLEWMGIIWPNGDQTTYAQKFQGRVTMTRDTSTSTVYMELSSLRSEDTAVYYCATTYKYAMDVWGQGTTVTVSS VL: EIVLTQSPGTLSLSPGERATLSCRASQSVRSNYLAWYQQKPGQAPRLLIYGASSRATGIPDRFSGSGSGTDFTLTISRLEPEDFAVYYCQQYESPPRTFGQGTKVEIKR | kon | M⁻¹ s⁻¹ | 274000 |
| Humanized mAb 4M60 (antibody, human IgG1, kappa, V domains shown, Humanized variant of moMAb 4E9, Bin 2) VH: QVQLVQSGSELKKPGASVKVSCKASGNTFTTYGMSWVRQAPGQGLEWMGWINNYSGVSTYADDFKGRFVFSLDTSVSTAYLQISSLKAEDTAVYYCARDYYGSGGWVFDYWGQGTTVTVSS VL: DVVMTQSPLSLPVTLGQPASISCKSSQSLLDSEGKTYLNWLQQRPGQSPRRLMYLVSKLDSGVPDRFSGSGSGTDFTLKISRVEAEDVGVYYCWQGTHFPRTFGGGTKVEIKR | kon | M⁻¹ s⁻¹ | 32200 |
| HuMAb 10K11 (antibody, human IgG1, kappa, V domains shown, Human anti-hMerTK mAb, Bin 1) VH: QLQLQESGPGLVKPSETLSLTCAVSGYSISSDYSWGWIRQPPGKGLEWIGSIYHSGNTYFNPSLKSRVTISVDTSKNQFSLKLSSVTAADTAVYYCARDKSYYFGPGSMDVWGQGTTVTVSS VL: AIQLTQSPSSLSASVGDRVTITCRASQGISSALAWYQQKPGKAPKLLIYDASSLESGVPSRFSGSGSGTDFTLTISSLQPEDFATYYCQQFKSYLTFGQGTRLEIKR | kon | M⁻¹ s⁻¹ | 108000 |

Query: Supply recorded kon for HuMAb 22I16 (antibody, human IgG1, kappa, V domains shown, Human anti-hMerTK mAb, Bin 1; also called 22116) VH: EVQLVESGGGLVQPGGSLRLSCAASGFTFSSYSMNWVRQAPGKGLEWVSYIISGSDTIFYADSVKGRFTISRDNAKNSLYLQMNSLRDEDTAVYYCARDETVVRGVINYFDYWGQGTLVTVSS VL: AIQLTQSPSSLSASVGDRVTITCRSSQGISSALAWYQQKPGKAPKLLIYDASSLESGVPSRFSGSGSGTDFTLTISSLQPEDFATYYCQQFISYPTFGQGTRLEIKR here.
Response: 50900

Query: Supply recorded kon for Humanized MAb 2L105 (antibody, human IgG1, lambda, V domains shown, Humanized variant of moMAb 2D9, Bin 2) VH: QVTLKESGPVLVKPTETLTLTCTVSGISLSSFAISWIRQPPGKALEWLAVIWTGGGTDYNSALKSRLTISKDTSKSQVVLTMTNMDPVDTATYYCASHWYLDVWGQGTTVTVSS VL: QTVVTQEPSFSVSPGGTVTLTCRSSTGAVSTSNYANWVQQTPGQAPRGLIGGANSRAPGIPDRFSGSILGNKAALTITGAQADDESDYYCALWFSNHWVFGGGTKLTVLG here.
Response: 55900

Query: Supply recorded kon for HuMAb 8N42 (antibody, V domains shown, Human anti-hMerTK mAb, Bin 1) VH: QVQLQQWGAGLLKPSETLSLTCAVYGGSFSIYYWSWIRQPPGKGLELIGEINDEGNTNYNPSLKSRVTISVDTSKNQFSLKLSSVTAADTAVYYCARGGTGDIHAFDIWGQGTMVTVSS VL: DIQMTQSPSSLSASVGDRVTITCRASQGISKWLAWYQQKPEKAPKSLIYAASSLQSGVPSRFSGSGSGTDFTLTISSLQPEDFATYYCQQYNSYPWTFGQGTKVEIKR here.
Response: 100000
